Reported values of Plat for individual entries
# Organism: Rattus norvegicus
# Protocol: Open TG-GATES - Regimen: Daily Repeat
# Assay type: toxicity, organism-based, Sprague-Dawley
# Parameters: regimen Daily Repeat, gender Male, age 6 weeks
# Assay Conditions: in vivo, po, 100 mg/kg, […], tissue Blood, route gavage, dose level Low, time 28 day
Give just the number in x10_4/uL; leave the unit off.

For orientation, consider the following solved cases.
COc1ccc2[nH]c([S+]([O-])Cc3ncc(C)c(OC)c3C)nc2c1 (stereo not given) [OMEPRAZOLE]; 106.5
CCOC(=O)CCC(=O)O[C@H]1[C@H](O[C@@H]2[C@@H](C)[C@H](O[C@H]3C[C@@](C)(OC)[C@@H](O)[C@H](C)O3)[C@@H](C)C(=O)O[C@H](CC)[C@@](C)(O)[C@H](O)[C@@H](C)C(=O)[C@H](C)C[C@@]2(C)O)O[C@H](C)C[C@@H]1N(C)C [ERYTHROMYCIN ETHYLSUCCINATE]; 107.2
CCOc1ccc(NC(=O)CC(C)O)cc1 (stereo not given) [BUCETIN]; 114.4
NC(N)=Nc1nc(CSCCC(N)=NS(N)(=O)=O)cs1 [FAMOTIDINE]; 96.6

# ---- query compound ----
Need Plat, item COC1=CC(=O)C[C@@H](C)[C@]12Oc1c(Cl)c(OC)cc(OC)c1C2=O [GRISEOFULVIN]
121.1

====

# Species: Rattus norvegicus
# Protocol: Open TG-GATES - Regimen: Daily Repeat
# Format: toxicity, organism-based, Sprague-Dawley
# Set-up: regimen Daily Repeat, gender Male, age 6 weeks
# Assay Conditions: in vivo, po, 1000 mg/kg, […], tissue Kidney, route gavage, dose level High, time 28 day
Reported values of KIDNEY_TOTAL for individual entries
Give just the number in g; leave the unit off.

For orientation, consider the following solved cases.
COc1ccc2[nH]c([S+]([O-])Cc3ncc(C)c(OC)c3C)nc2c1 (stereo unspecified); 2.5
NC(N)=Nc1nc(CSCCC(N)=NS(N)(=O)=O)cs1; 2.7
COC1=CC(=O)C[C@@H](C)[C@]12Oc1c(Cl)c(OC)cc(OC)c1C2=O; 3.1

Need KIDNEY_TOTAL, item CC(C)OC(=O)C(C)(C)Oc1ccc(C(=O)c2ccc(Cl)cc2)cc1 [FENOFIBRATE]
2.8

Need KIDNEY_TOTAL, item CCOc1ccc(NC(=O)CC(C)O)cc1 (stereo unspecified)
3.1

Need KIDNEY_TOTAL, item CCOC(=O)CCC(=O)O[C@H]1[C@H](O[C@@H]2[C@@H](C)[C@H](O[C@H]3C[C@@](C)(OC)[C@@H](O)[C@H](C)O3)[C@@H](C)C(=O)O[C@H](CC)[C@@](C)(O)[C@H](O)[C@@H](C)C(=O)[C@H](C)C[C@@]2(C)O)O[C@H](C)C[C@@H]1N(C)C [ERYTHROMYCIN ETHYLSUCCINATE]
2.8

====

# Organism: Rattus norvegicus
# Protocol: Open TG-GATES - Regimen: Single
# Assay type: toxicity, organism-based, Sprague-Dawley
# Set-up: regimen Single, gender Male, age 6 weeks
# Assay Conditions: in vivo, po, 0 mg/kg, 6 h, tissue Plasma, route gavage, dose level Control
Property Label: BUN (mg/dL)
Give just the number in mg/dL; leave the unit off.

CCOC(=O)CCC(=O)O[C@H]1[C@H](O[C@@H]2[C@@H](C)[C@H](O[C@H]3C[C@@](C)(OC)[C@@H](O)[C@H](C)O3)[C@@H](C)C(=O)O[C@H](CC)[C@@](C)(O)[C@H](O)[C@@H](C)C(=O)[C@H](C)C[C@@]2(C)O)O[C@H](C)C[C@@H]1N(C)C [ERYTHROMYCIN ETHYLSUCCINATE]; 9.6
COC1=CC(=O)C[C@@H](C)[C@]12Oc1c(Cl)c(OC)cc(OC)c1C2=O; 8.6

Need BUN, item `CN(C)CCN(Cc1cccs1)c1ccccn1`
10.8

Need BUN, item `Cc1ccc(C)c(OCCCC(C)(C)C(=O)O)c1`
9.6

Need BUN, item `CC1=C(/C=C/C(C)=C/C=C/C(C)=C/CO)C(C)(C)CCC1`
10.6
